Protocol Notes: chemical genetic growth profiling, strain panel (AID 1159580);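 further: tested at 20 µM; growth read once vehicle control cultures reached saturation at 30 °C; 1 = growth at the plate median or of vehicle wells; lower values mean less growth of the strain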
Setup Conditions: S. cerevisiae deletion strains, growth OD, locus YLR268W, strain sec22, active compounds read low
Hit rate of the full screen: of about 5,500 compounds, about 2,000 (36%) were called active. Not shown: some 18% with an inconclusive outcome. The list shows a part of the results.
As shown below, each of these compounds has a reported normalized growth value.
Please give the numeric answer without any surrounding text.

Please review the following examples before continuing.
Compound	normalized growth
CCC(=O)Nc1ccc(Cl)c(Cl)c1	0.982
COc1c2ccoc2nc2c(OC)c(OCC(O)C(C)(C)O)ccc12 (stereo unspecified)	1.02

normalized growth reading for CC(=O)O[C@H]1CC[C@]2(C)C3=CC(=O)[C@@]4(C)C(C[C@@H]5OC6(OCC(C)CC6Br)[C@@H](C)[C@@H]54)C3CC[C@H]2C1 (stereo partly specified) : 0.995

* * *

Protocol Notes: chemical genetic growth profiling, strain panel (AID 1159580)
Setup Conditions: S. cerevisiae deletion strains, growth OD, locus YNL175C, strain NOP13, active compounds read low
The whole screen tested about 5,500 compounds, of which about 2,000 (36%) were called active. Another 18% or so got no clear call; they are omitted. Some of the results follow.
Recorded Endpoint: normalized growth
Please give the numeric answer without any surrounding text.

> print(dat)
                                   molecule  reported.measurement
1               CN(C)CCOC(=O)COc1ccc(Cl)cc1                 0.949
2  NCC(CC(=O)O)c1ccc(Cl)cc1 (configuration not stated)                 0.977
3                C#CCN(C)CCCOc1ccc(Cl)cc1Cl                     1

# next molecule below
normalized growth reading for CSc1ccc2c(c1)N(CCC1CCCCN1C)c1ccccc1S2 (configuration not stated) : 1.07

* * *

Protocol Notes: chemical genetic growth profiling, strain panel (AID 1159580)
Setup Conditions: S. cerevisiae deletion strains, growth OD, locus YLR268W, strain sec22
About 2,000 (36%) of roughly 5,500 compounds were called active. About 18% were inconclusive and are not listed. Rule as the data show it: active = normalized growth mostly below about 0.91 (no sharp cut-off); inconclusive = no clear call, values can overlap the other calls; inactive = mostly above about 0.92. This is one part of the list.
Use one of these outcomes when replying: true (1) = active, false (0) = inactive

The following compounds have reported results that may help.
> print(dat)
                                   compound  qualitative.label
1  CO[C@]12C[C@@H](COC(=O)c3cncc(Br)c3)CN(C)[C@@H]1Cc1cn(C)c3cccc2c13          false (0)
2                 COC(=O)CCCOc1ccc(Cl)cc1Cl          false (0)
3  NCC(CC(=O)O)c1ccc(Cl)cc1 (centres undefined)          false (0)

Exam item: Record lookup: outcome of this test for CN(C)CCOC(=O)COc1ccc(Cl)cc1 ?
Marked response: true (1)

* * *

As shown below, each of these molecules has a reported normalized growth value.
Protocol Notes: chemical genetic growth profiling, strain panel (AID 1159580)
Setup Conditions: S. cerevisiae deletion strains, growth OD, locus YCL029C, strain bik1, active compounds read low
Out of some 5,500 compounds screened, about 2,000 (36%) were called active. Another 18% or so got no clear call; they are omitted. The list shows a part of the results.
Please give the numeric answer without any surrounding text.

Molecule	Recorded Endpoint	Reported Measurement
C=C1C2CCC3(C)C(c4ccoc4)OC(=O)CC13OC1CC(OC(C)=O)C(C)(C)C(CC(=O)OC)C12C (stereo unspecified)	normalized growth	0.995
CC(CCC(=O)O)[C@H]1CCC2C3C(C[C@H](O)[C@@]21C)[C@@]1(C)CC[C@@H](O)C[C@H]1C[C@H]3O (stereo partly specified)	normalized growth	1.02
O=C(O)c1ccccc1C(=O)Nc1ccc(S(=O)(=O)Nc2nccs2)cc1	normalized growth	0.994

normalized growth reading for CN(C(=O)CN(CCO)CC(=O)N(C)C(C)(C)Cc1ccccc1)C(C)(C)Cc1ccccc1 : 0.97

normalized growth reading for COc1c2ccccc2nc2occc12 : 0.953

normalized growth reading for N[C@H](Cc1cc(I)c(Oc2ccc(O)c(I)c2)c(I)c1)C(=O)O : 1.01

normalized growth reading for CNC(=O)Oc1ccc2c(c1)[C@]1(C)CCN(C)[C@@H]1N2C : 1.01

normalized growth reading for COc1cc(C(=O)O)c2c(c1C)OC(=O)c1c(C)cc(O)c(C=O)c1O2 : 1

* * *

Protocol Notes: chemical genetic growth profiling, strain panel (AID 1159580)
Setup Conditions: S. cerevisiae deletion strains, growth OD, locus YBR009C, strain hhf1, active compounds read low
The campaign covered roughly 5,500 compounds. About 2,000 (36%) were called active. Another 18% or so got no clear call; they are omitted. This is one part of the list.
As shown below, each of these molecules has a reported normalized growth value.
Please give the numeric answer without any surrounding text.

Please review the following examples before continuing.
Molecule	Reported Measurement
O=[N+]([O-])c1cccc2cn[nH]c12	1
NC(=O)c1ncn(C2O[C@H](CO)[C@@H](O)[C@H]2O)c1N (some centres undefined)	1.07
N[C@@H]1[C@@H](O)[C@H](O)[C@@H](CO)O[C@H]1O	1.02

normalized growth reading for CN[C@@H]1[C@H](OC2[C@H](O[C@H]3[C@H](O)[C@@H](O)[C@H](N=C(N)N)[C@@H](O)[C@@H]3N=C(N)N)O[C@@H](C)[C@]2(O)C=O)O[C@@H](CO)[C@H](O)[C@H]1O (some centres undefined) : 0.988

* * *

Protocol Notes: chemical genetic growth profiling, strain panel (AID 1159580);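 further: tested at 20 µM; growth read once vehicle control cultures reached saturation at 30 °C; 1 = growth at the plate median or of vehicle wells; lower values mean less growth of the strain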
Setup Conditions: S. cerevisiae deletion strains, growth OD, locus YDR195W, strain ref2
About 2,000 (36%) of roughly 5,500 compounds were called active. About 18% were inconclusive and are not listed. Cut-off read from the data, not from the text of the source: active = normalized growth mostly below about 0.91 (no sharp cut-off); inconclusive = no clear call, values can overlap the other calls; inactive = mostly above about 0.92. This is one part of the list.
Use one of these outcomes when replying: active, inactive

Molecule	Qualitative Label
CC1(C)C(O)CC(O)C2(C)C1CC(O)C1(C)C2CCC2(C)C(c3ccoc3)OC(=O)C3OC321 (stereo not given)	inactive
C[C@@H]1CC2C3C[C@H](F)C4=CC(=O)C=C[C@]4(C)[C@@]3(F)[C@@H](O)C[C@]2(C)[C@@]1(O)C(=O)COC(=O)C(C)(C)C (stereo not given in full)	inactive
COc1cc([C@@H]2c3cc4c(cc3[C@H](OC(C)=O)[C@H]3COC(=O)[C@@H]23)OCO4)cc(OC)c1OC	inactive
CCCCCC1C(=O)CCC1CC(=O)OC (stereo not given)	inactive

Exam item: Record lookup: outcome of this test for O=c1cc(-c2ccccc2)oc2cccc(O)c12 ?
Marked response: active

* * *

Protocol Notes: chemical genetic growth profiling, strain panel (AID 1159580);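 further: tested at 20 µM; growth read once vehicle control cultures reached saturation at 30 °C; 1 = growth at the plate median or of vehicle wells; lower values mean less growth of the strain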
Setup Conditions: S. cerevisiae deletion strains, growth OD, locus YGL078C, strain dbp3, active compounds read low
Screen size: about 5,500 compounds; about 2,000 (36%) were called active. Inconclusive results (about 18%) are left out. The list shows a part of the results.
As shown below, each of these compounds has a reported normalized growth value.

Please review the following examples before continuing.
Compound	Recorded Endpoint	Reported Measurement
C=C1[C@H]2CC[C@@]3(C)[C@H](c4ccoc4)OC(=O)C[C@]13O[C@H]1C[C@H](O)C(C)(C)[C@H](CC(=O)OC)[C@]12C	normalized growth	1.02 (inactive)
CO[C@]12C[C@@H](COC(=O)c3cncc(Br)c3)CN(C)[C@@H]1Cc1cn(C)c3cccc2c13	normalized growth	1 (inactive)
CCCCC[C@H](CC(=O)NO)C(=O)N[C@H](C(=O)N1CCC[C@H]1CO)C(C)C	normalized growth	1.02 (inactive)

normalized growth reading for C=C1C2CC[C@@]3(C)[C@H](c4ccoc4)OC(=O)C[C@]13O[C@H]1CC(=O)C(C)(C)C(CC(=O)OC)[C@@]21C (some centres undefined) : 1.02 (inactive)

normalized growth reading for C[C@@H]1O[C@@H](O[C@H]2C[C@@H](O)[C@]3(CO)C4C(CC[C@]3(O)C2)[C@@]2(O)CC[C@H](C3=CC(=O)OC3)[C@@]2(C)C[C@H]4O)[C@H](O)[C@H](O)[C@H]1O (some centres undefined) : 0.992 (inactive)

normalized growth reading for CC1CCC2(OC1)OC1CC3C4CCC5C[C@@H](O)CCC5(C)C4=CCC3(C)C1[C@@H]2C (some centres undefined) : 0.948 (inactive)

* * *

As shown below, each of these compounds has a reported normalized growth value.
Protocol Notes: chemical genetic growth profiling, strain panel (AID 1159580);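 further: tested at 20 µM; growth read once vehicle control cultures reached saturation at 30 °C; 1 = growth at the plate median or of vehicle wells; lower values mean less growth of the strain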
Setup Conditions: S. cerevisiae deletion strains, growth OD, strain wtn01, active compounds read low
Out of some 5,500 compounds screened, about 2,000 (36%) were called active. Roughly 18% stayed inconclusive and do not appear here. The list shows a part of the results.
Please give the numeric answer without any surrounding text.

Please review the following examples before continuing.
> print(dat)
                                   compound  recorded.endpoint  reported.measurement
1                    S=P(N1CC1)(N1CC1)N1CC1  normalized growth                 0.983
2  Cc1cc(C)cc(OCC2CNC(=O)O2)c1 (stereo not given)  normalized growth                  1.01

normalized growth reading for CN(C)N=Nc1nc[nH]c1C(N)=O : 0.995

normalized growth reading for NC(N)=NCCC[C@@H](NC(=O)[C@@H](N)Cc1ccc(O)cc1)C(=O)O : 0.999

normalized growth reading for O=C(O)c1ccccc1C(=O)Nc1ccc(S(=O)(=O)Nc2nccs2)cc1 : 0.995

// data source = PubChem BioAssay AID1159580
